Molecular target: Beta-secretase 1 (Homo sapiens)
Sequence (P56817 whole entry): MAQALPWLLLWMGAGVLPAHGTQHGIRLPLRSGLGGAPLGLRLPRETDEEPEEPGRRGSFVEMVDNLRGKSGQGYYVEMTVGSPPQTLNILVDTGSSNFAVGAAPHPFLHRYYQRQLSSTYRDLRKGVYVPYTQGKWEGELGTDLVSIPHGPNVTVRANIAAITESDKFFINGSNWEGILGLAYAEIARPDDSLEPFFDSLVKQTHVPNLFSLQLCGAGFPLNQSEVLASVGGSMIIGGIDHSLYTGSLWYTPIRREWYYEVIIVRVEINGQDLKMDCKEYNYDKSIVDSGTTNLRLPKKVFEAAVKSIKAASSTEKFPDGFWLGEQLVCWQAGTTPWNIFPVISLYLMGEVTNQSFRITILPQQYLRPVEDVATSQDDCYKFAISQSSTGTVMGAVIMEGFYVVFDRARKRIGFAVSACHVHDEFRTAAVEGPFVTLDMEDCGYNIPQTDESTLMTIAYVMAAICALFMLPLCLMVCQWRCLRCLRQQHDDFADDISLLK
readout-type: IC50

Below: 4 compounds and their reported IC50.
In [3]: df
Out[3]:
                                   compound    result
0  CC(C)CC1NC(=O)C(SCC(=O)NCc2ccc3c(c2)OCO3)C1=O (stereo not given)    200 µM
1  CC(C)CC1NC(=O)C(SCc2cccc(C(F)(F)F)c2)C1=O (stereo not given)    194 µM
2  COc1ccc(CN2CC(=O)C(Sc3ccccc3)C2=O)cc1 (stereo not given)  > 200 µM
3  O=C1OC(CCc2ccccc2)C(=O)C1SCc1cccc(C(F)(F)F)c1 (stereo not given)  > 200 µM

# value lookup — system Beta-secretase 1 (Homo sapiens), readout IC50, item O=C1CN(Cc2cccc(C(F)(F)F)c2)C(=O)C1Sc1ccccc1 (stereo not given)
> 200 µM
